Hey, just so you know, these numbers are from the supplement of paper PMC10567573.

B1: ZNF649 (parent)
chain: LTEHKRIHTGKKPHVCSLCGKAFY

Variants of: B1
Experiment: protein stability index of a GFP-peptide fusion (GPS, HEK-293T) (PSI 1-6); higher = more stable;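 further: lentivirally expressed fusions sorted by FACS into six bins by GFP to DsRed ratio, PSI derived from sequencing read proportions per bin multiplied by bin number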
Conditions: c terminus: a fixed tail appended
Recorded measurements of protein stability index, one per entry
Reply: number alone, nothing else.

Reference set, count: 5
1. E3N | 2.22
2. I7M | 2.4
3. G10C | 3.76
4. P13L | 2.32
5. K5R | 2.63

Inquiry: Sample `G10N` — what was its protein stability index?
Reply text: 1.98

Inquiry: Follow-up item: `K21W`
Reply text: 2.15

Inquiry: Follow-up item: `K12Y`
Reply text: 2.32
